From: PubChem BioAssay AID1963443

tested on: MDA-MB-231 complex spheroids, growth inhibition; assay: Anticancer human tumor MDA-MB-231 cell line growth inhibition [Asc]; conditions: second compound 1 µM; first compound 1 µM; hits give low values;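 also: spheroids exposed to compounds for 7 days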
RECORDED ENDPOINT: viability, T/C (%)
Answers are plain numbers, in %.

The examples below pair each entry with its known result.
O=C(c1ccc(F)c(F)c1Nc1ccc(I)cc1F)N1CC(O)([C@@H]2CCCCN2)C1 + Cc1c(S(C)(=O)=O)c(-c2cc(F)cc(N3CCN(c4ccc(NS(=O)(=O)c5ccc(NC(CCN6CCC(C(=O)OCCCP(=O)(O)O)CC6)CSc6ccccc6)c(S(=O)(=O)C(F)(F)F)c5)cc4)CC3)c2)c(-c2ccc(Cl)cc2)n1C(C)C ... 1.16
COc1c(OCCCN2CCOCC2)ccc2c3n(c(=NC(=O)c4cnc(N)nc4)nc12)CCN3 + Cc1c(S(C)(=O)=O)c(-c2cc(F)cc(N3CCN(c4ccc(NS(=O)(=O)c5ccc(NC(CCN6CCC(C(=O)OCCCP(=O)(O)O)CC6)CSc6ccccc6)c(S(=O)(=O)C(F)(F)F)c5)cc4)CC3)c2)c(-c2ccc(Cl)cc2)n1C(C)C ... 8.74
O=C(c1cc(Cc2n[nH]c(=O)c3ccccc23)ccc1F)N1CCN(C(=O)C2CC2)CC1 + CNC(C)C(=O)NC1CN(S(=O)(=O)c2cccc(S(=O)(=O)N3CCC4CCC(C(=O)NC(c5ccccc5)c5ccccc5)N4C(=O)C(NC(=O)C(C)NC)C3)c2)CCC2CCC(C(=O)NC(c3ccccc3)c3ccccc3)N2C1=O ... 0.97

Please give viability, T/C, item by item, for the list that follows.
1. CCN1CCN(Cc2ccc(Nc3ncc(F)c(-c4cc(F)c5nc(C)n(C(C)C)c5c4)n3)nc2)CC1 + Cc1c(S(C)(=O)=O)c(-c2cc(F)cc(N3CCN(c4ccc(NS(=O)(=O)c5ccc(NC(CCN6CCC(C(=O)OCCCP(=O)(O)O)CC6)CSc6ccccc6)c(S(=O)(=O)C(F)(F)F)c5)cc4)CC3)c2)c(-c2ccc(Cl)cc2)n1C(C)C
2. C=C(F)C(=O)N1CCN(c2nc(OCC3CCCN3C)nc3c2CCN(c2cccc4cccc(Cl)c24)C3)CC1CC#N (configuration not stated) + CNC(C)C(=O)NC1CN(S(=O)(=O)c2cccc(S(=O)(=O)N3CCC4CCC(C(=O)NC(c5ccccc5)c5ccccc5)N4C(=O)C(NC(=O)C(C)NC)C3)c2)CCC2CCC(C(=O)NC(c3ccccc3)c3ccccc3)N2C1=O
3. O=C(c1ccc(F)c(F)c1Nc1ccc(I)cc1F)N1CC(O)([C@@H]2CCCCN2)C1 + CNC(C)C(=O)NC1CN(S(=O)(=O)c2cccc(S(=O)(=O)N3CCC4CCC(C(=O)NC(c5ccccc5)c5ccccc5)N4C(=O)C(NC(=O)C(C)NC)C3)c2)CCC2CCC(C(=O)NC(c3ccccc3)c3ccccc3)N2C1=O
4. CNC(C)C(=O)NC1CN(S(=O)(=O)c2cccc(S(=O)(=O)N3CCC4CCC(C(=O)NC(c5ccccc5)c5ccccc5)N4C(=O)C(NC(=O)C(C)NC)C3)c2)CCC2CCC(C(=O)NC(c3ccccc3)c3ccccc3)N2C1=O (configuration not stated) + Cc1c(S(C)(=O)=O)c(-c2cc(F)cc(N3CCN(c4ccc(NS(=O)(=O)c5ccc(NC(CCN6CCC(C(=O)OCCCP(=O)(O)O)CC6)CSc6ccccc6)c(S(=O)(=O)C(F)(F)F)c5)cc4)CC3)c2)c(-c2ccc(Cl)cc2)n1C(C)C

// result
42.1
1.49
0.21
0.9
